Attribution: ChEMBL document CHEMBL4406803

- Test system: LAPC4
- assay.protocol: Androgenic activity in human LAPC4 cells expressing androgen receptor assessed as effect on cell proliferation at 0.1 uM supplemented with fresh medium containing compounds every 3 days for 7 days by MTS assay (reference value: 100%)
- Format: ADME, cell-based
- study.conditions: lapc4, 168 h
assay.readout: Activity (%)
Use % as the unit, but write only the number.

CC1CN(S(=O)(=O)c2ccccc2C(F)(F)F)C(C)CN1C[C@@]1(O)CC[C@@]2(C)[C@@H](CC[C@@H]3[C@@H]2CC[C@]2(C)[C@@H](O)[C@H](O)C[C@@H]32)C1 (stereo not given in full)	90.8

Prompt: If you can, please state the reported Activity value of CC1CN(S(=O)(=O)c2ccccc2C(F)(F)F)C(C)CN1C[C@@]1(O)CC[C@H]2[C@@H](CC[C@@H]3[C@@H]2CC[C@]2(C)C(=O)CC[C@@H]32)C1 (stereo not given in full) .
Response: 92.8
